molecular target: Substance-P receptor (Rattus norvegicus); experiment: Tested for binding affinity towards Tachykinin receptor 1 by using [3H]SP binding assay in rat brain membranes; type: cell membranes
Sequence (P14600 whole entry): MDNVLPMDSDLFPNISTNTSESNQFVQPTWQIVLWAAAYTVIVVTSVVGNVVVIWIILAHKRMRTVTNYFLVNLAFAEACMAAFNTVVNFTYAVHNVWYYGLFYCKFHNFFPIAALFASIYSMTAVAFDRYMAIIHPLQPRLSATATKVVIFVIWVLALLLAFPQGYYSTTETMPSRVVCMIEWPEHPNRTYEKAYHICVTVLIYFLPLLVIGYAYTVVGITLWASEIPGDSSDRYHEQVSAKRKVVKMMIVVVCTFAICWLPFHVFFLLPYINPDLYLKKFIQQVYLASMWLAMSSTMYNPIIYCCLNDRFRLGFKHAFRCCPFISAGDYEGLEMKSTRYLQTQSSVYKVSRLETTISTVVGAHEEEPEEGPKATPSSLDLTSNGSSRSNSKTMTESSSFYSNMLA
value type: Ki (nM)
Give bare numbers, in nM.

In plain terms, COc1ccccc1CC(=N)N1C[C@@H]2C(=O)CCC(c3ccccc3)(c3ccccc3)[C@@H]2C1 has a documented Ki of 4.16
